Data origin, for the record: PubChem BioAssay (NCI)

System: OVCAR-5 ovarian
method_description: NCI tumour cell line growth inhibition, 48 h
Listed below: TGI values for each entry.

c1ccc2c(c1)SCCCSCCSCCCS2 > 100 µM

input: What value of TGI has been reported for the following compound? `Cc1ccccc1-c1nc2c(C(=O)NCCN(C)C)cccc2[nH]1`
output: > 100 µM

input: Thanks! And `Cc1c2c(c(C)c3c4c(oc13)CCCC4)C=NCC2` ?
output: 32.1 µM

input: Thanks! And `N.N.N.N.N.O=[N+]([O-])[O-].[Co+3].[O-][Cl+3]([O-])([O-])[O-]` ?
output: > 100 µM

input: Thanks! And `Cc1ccc(S(=O)(=O)Nc2nnc(S(N)(=O)=O)s2)cc1` ?
output: > 100 µM

input: Thanks! And `O=C1c2c(O)cccc2-c2nn(CCNCCO)c3ccc(NCCNCCO)c1c23` ?
output: 2.85 µM

* * *

Tested on: T-47D breast
method_description: NCI tumour cell line growth inhibition, 48 h
measure: TGI

Below, 3 molecules whose answers are already recorded.
molecule	tested_target	TGI
Cc1cc(C)c2c(c1)C(=O)/C(=C/c1ccccc1C(=O)O)C2	T-47D breast	> 100 µM
NCC(O)CSCc1ccc(Cl)cc1 (centres undefined)	T-47D breast	> 100 µM
CC(C)(C)[Si](C)(C)OCc1cccc(OCCOc2cccc(CO[Si](C)(C)C(C)(C)C)c2[N+](=O)[O-])c1[N+](=O)[O-]	T-47D breast	> 100 µM

Please find the next molecule below.
input: Return TGI measured with T-47D breast given this molecule: COc1cc(C2C3=C(COC3=O)Oc3cc4c(cc32)OCO4)cc(OC)c1O (centres undefined)
output: 60.3 µM

* * *

Tested on: SW-620 colon
method_description: NCI tumour cell line growth inhibition, 48 h
measure: TGI

Below, 5 compounds whose answers are already recorded.
compound	tested_target	reading
O=C(Nc1ccccc1C(=O)NCc1ccccc1)/C(=C/c1ccccc1)NC(=O)c1ccccc1	SW-620 colon	> 100 µM
CC(=O)OCC(=O)[C@@]12OC(C)(C)O[C@@H]1C[C@H]1[C@@H]3CC(C=O)=C4C=C(OCCCl)CC[C@]4(C)[C@@]3(F)[C@@H](O)C[C@@]12C	SW-620 colon	> 100 µM
COC(=O)COc1ccc(/C=C2/N=C(c3ccccc3)N(c3c(C)n(C)n(-c4ccccc4)c3=O)C2=O)cc1	SW-620 colon	50.6 µM
NN=C(CC(O)(C(F)(F)Cl)C(F)(F)Cl)CC(O)(C(F)(F)Cl)C(F)(F)Cl	SW-620 colon	> 10 µM
O=C(Cc1ccc(Cl)c(Cl)c1)NCC1(N2CCCCC2)CCCCC1	SW-620 colon	> 100 µM

input: What value of TGI has been reported for the following compound? `c1cncc(CNCc2cccnc2)c1`
output: > 100 µM

input: Thanks! And Cc1cc(=O)[nH]c(NN2C(Cl)C(=O)C2c2ccc([N+](=O)[O-])cc2)n1 (centres undefined) ?
output: 79.7 µM

input: Thanks! And `O=c1[nH]c2nc(NC3CCOCC3)ncc2cc1Oc1ccc(F)cc1F` ?
output: > 25 µM

input: Thanks! And `CCOC(=O)Nn1c(CC#N)nnc1Cc1ccccc1` ?
output: > 100 µM

* * *

Test system: 786-0 renal
method_description: NCI tumour cell line growth inhibition, 48 h
Where a SMILES comes first, the peptide text is derived from it. [ ]: non-standard residue; d: D form. The star is where a group is joined. Bn2Val = CC(C)[C@@H](C(=O)*)N(Cc1ccccc1)Cc1ccccc1; NH(4-Cl-benzyl) = Clc1ccc(CN*)cc1; NMeV = CN[C@H](C(=O)O)C(C)C; dNMeA = CN[C@H](C)C(=O)O
measure: TGI

Below, 4 compounds whose answers are already recorded.
compound	TGI
CCc1cc2c(c3c1CCCC3=O)CC1(Cc3ccc(C(=O)OC)cc3C1)C2 (stereo not drawn)	> 100 µM
NCCOCCOCCNc1nc(-c2ccc(Cl)cc2)nc(N2CCN(c3ccccn3)CC2)n1	3.61 µM
CC(C)[C@H](NC(=O)[C@H](C(C)C)N(Cc1ccccc1)Cc1ccccc1)C(=O)N(C)[C@H](C(=O)N1CCC[C@H]1C(=O)N(C)[C@H](C)C(=O)NCc1ccc(Cl)cc1)C(C)C (Bn2Val-V[NMeV]P[dNMeA]-{NH(4-Cl-benzyl)})	28.7 µM
O=C(Nn1c(-c2ccccc2)nc2ccccc2c1=O)c1ccccc1O	> 100 µM

input: What value of TGI has been reported for the following compound? `c1ccc(-c2nc(N3CCOCC3)c3c4c(sc3n2)CCCCCC4)nc1`
output: 32.8 µM

* * *

Test system: SK-MEL-28 melanoma
method_description: NCI tumour cell line growth inhibition, 48 h
Listed below: GI50 values for each entry.

Below, 4 compounds whose answers are already recorded.
compound	reading
Cc1nc2c(n1C)C(=O)c1ccccc1C2=O	> 100000 nM
O=C(c1ccccc1)c1c(NCC(O)CN2CCOCC2)n(Cc2ccccc2)c(=O)n(Cc2ccccc2)c1=O (stereo not given)	> 64100 nM
COc1cc2c(cc1OC)C(=O)/C(=C/c1cc(-c3ccc4c(c3)OCO4)n[nH]1)C2	1890 nM
Cc1c2cc(Cl)c3ccccc3c2c[n+]2ccccc12	1800 nM

Please find the next compound below.
input: What value of GI50 has been reported for the following compound? `O=C([O][Sn]([O]C(=O)c1ccccn1)([c]1ccccc1)[c]1ccccc1)c1ccccn1`
output: 3400 nM

* * *

Tested on: SF-268 CNS
method_description: NCI tumour cell line growth inhibition, 48 h
measure: TGI (µM)
Form entry: value (µM) — number only.

Below, 9 compounds whose answers are already recorded.
compound	tested_target	TGI / µM
CCCCCCCCNCCC[C@@H](C)[C@H]1CC[C@H]2[C@@H]3[C@H](OCCCN)C[C@H]4C[C@H](OCCCN)CC[C@]4(C)[C@H]3C[C@H](OCCCN)[C@]12C	SF-268 CNS	3.7
COC(=O)C1C(O)C(C)C(O)C(C)C=C(C)C2=C3C(=C(C)C(=O)c4c(O)c(c(C)c(OC(C)=O)c43)NC(=O)C(C)=C/C=C\C(C)C(O)C(C)C1O)OCO2 (stereo not given)	SF-268 CNS	44.9
C#Cc1nc2ccccc2c(=O)[nH]1	SF-268 CNS	4.57
O=C(NCCc1ccccn1)OCc1nc2nc(Cl)nc(N3CCOCC3)c2[nH]1	SF-268 CNS	3.8
Cc1cc(O)c(C2=NN(c3ccc(S(N)(=O)=O)cc3)C(c3ccc(Cl)cc3)C2)c(C)c1Cl (stereo not given)	SF-268 CNS	19.4
O=C1c2c(O)cccc2-c2nn(CCNCCO)c3ccc(NCCNCCO)c1c23	SF-268 CNS	1.17
O=C(c1cccs1)N1CCN(C(=O)c2cccs2)C1=S	SF-268 CNS	20
O=C([O][Sn]([O]C(=O)c1ccccn1)([c]1ccccc1)[c]1ccccc1)c1ccccn1	SF-268 CNS	9.09
COc1cc(NC(=O)CCSc2nc3ccc(C)cc3c(=O)n2Cc2ccccc2)cc(OC)c1OC	SF-268 CNS	49.6

Please find the next compound below.
input: What value of TGI has been reported for the following compound? `COc1cc2c(cc1OC)C(=O)/C(=C/c1cc(-c3ccc4c(c3)OCO4)n[nH]1)C2`
output: 3.37

* * *

System: K-562 leukemia
method_description: NCI tumour cell line growth inhibition, 48 h
Listed below: GI50 values for each entry.

Below, 2 compounds whose answers are already recorded.
compound	GI50
c1ccc2c(-c3nc(-c4c[nH]c5ccncc45)cs3)c[nH]c2c1	2.05 µM
Cc1cc2c([nH]c3ccccc32)c(O)c1-c1c(C)cc2c([nH]c3ccccc32)c1O	12.3 µM

input: What value of GI50 has been reported for the following compound? `COc1cc(NC(=O)CCSc2nc3ccc(C)cc3c(=O)n2Cc2ccccc2)cc(OC)c1OC`
output: > 100 µM

input: Thanks! And `C1CC[N-]CC1.CC(=N\O)/C(C)=N/O.CC(=N\O)/C(C)=N/O.OC1[CH-]CCCC1.[Co+2]` ?
output: 33.4 µM

input: Thanks! And `Cn1cc(-c2ccc3nnc(Sc4ccc5ncccc5c4)n3n2)cn1` ?
output: 38.4 µM

* * *

Test system: OVCAR-4 ovarian
method_description: NCI tumour cell line growth inhibition, 48 h; in the data active means GI50 below about 0.43 µM; inactive means the rest
Your reply should match one of these outcome classes. class 1 for active, class 0 for inactive

input: Write down the call the test reported for this compound. Item: `OCc1ccc(-c2cscc2-c2ccc(CO)o2)o1`
output: class 0

input: Thanks! And `COc1cc(NC(=O)CCSc2nc3ccc(C)cc3c(=O)n2Cc2ccccc2)cc(OC)c1OC` ?
output: class 0

input: Thanks! And `Cc1c(-c2ccnc(N)n2)c2c(n1Cc1ccccc1)C(=O)c1ccccc1C2=O` ?
output: class 0

input: Thanks! And Cc1cc(O)c(C2=NN(c3ccc(S(N)(=O)=O)cc3)C(c3ccc(Cl)cc3)C2)c(C)c1Cl (stereo not drawn) ?
output: class 0

input: Thanks! And `COc1ccc(-c2nc(-c3nc4ccc(F)cc4[nH]3)c3ccccn23)cc1` ?
output: class 0

input: Thanks! And `Cc1nnc2n1N=C(c1ccc(Cl)cc1Cl)/C(=C/c1ccc(-c3ccc([N+](=O)[O-])cc3Cl)o1)S2` ?
output: class 0

input: Thanks! And COc1cc2c(cc1OCCCCCCN1CCN(CC(=O)Nc3ccc(Cl)cc3C(=O)c3ccccc3Cl)CC1)N=CC1CCCN1C2=O (stereo not drawn) ?
output: class 1

input: Thanks! And O=P1(S)OC[C@H]2O[C@@H]3[C@H](F)[C@@H]2OP(O)(=S)OC[C@H]2O[C@H]([C@H](F)[C@@H]2O1)n1cnc2c(ncnc21)NC/C=C/CNc1ncnc2c1ncn23 (stereo partly drawn) ?
output: class 0
